// reported pIC50 for each item listed
test system: UniProtKB P25929
Sequence (P25929 whole entry): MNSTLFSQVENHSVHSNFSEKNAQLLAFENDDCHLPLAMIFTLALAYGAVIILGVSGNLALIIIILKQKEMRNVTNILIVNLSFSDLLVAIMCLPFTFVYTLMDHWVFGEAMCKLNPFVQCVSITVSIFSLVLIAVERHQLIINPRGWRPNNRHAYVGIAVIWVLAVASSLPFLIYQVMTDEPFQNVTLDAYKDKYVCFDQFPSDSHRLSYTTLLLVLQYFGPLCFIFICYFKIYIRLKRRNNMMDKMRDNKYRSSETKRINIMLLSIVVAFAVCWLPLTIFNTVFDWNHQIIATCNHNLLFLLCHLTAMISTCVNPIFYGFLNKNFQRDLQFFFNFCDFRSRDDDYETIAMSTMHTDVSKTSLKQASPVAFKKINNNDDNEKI
experiment notes: NPY binding inhibition test ([125I] peptide YY binding to membranes of NPY Y1 receptor expressing CHO-K1 cells)
run parameters: membrane of CHO-K1 cells expressing human NPY Y1 receptor, 25° C., 2 hours; read-out: IC50 against specific [125I] peptide YY binding
pIC50: −log10 of the molar value.
experimental endpoint: pIC50

compound=Cc1nc(SCc2cc(N3CCSCC3)cc(NCc3cccc(F)n3)n2)oc1C experimental_endpoint=pIC50 observed_result=9.57
compound=Cc1cccc(CNc2cc(N3CCOCC3)cc(CSc3nc(CF)c(C)s3)n2)n1 experimental_endpoint=pIC50 observed_result=9.70
compound=CCc1sc(SCc2cc(N3CCC(F)CC3)cc(NCc3cccc(C)n3)n2)nc1C experimental_endpoint=pIC50 observed_result=9.59
compound=C=CCNc1cc(N2CCC(F)(F)CC2)cc(CSc2cc(CC)n(C)n2)n1 experimental_endpoint=pIC50 observed_result=9.55
compound=Cc1cccc(CNc2cc(N3C4CCC3CC(F)(F)C4)cc(CSc3cc(C)n(C)n3)n2)n1 experimental_endpoint=pIC50 observed_result=9.62
compound="C=CCOC(=O)Nc1cccc(CNc2cc(C3CCOCC3)cc(CSc3nnc(CC)s3)n2)c1 [Compound (A), reference compound]" experimental_endpoint=pIC50 observed_result=9.48
compound=CCc1sc(SCc2cc(N3CCOCC3)cc(NCc3cccc(C)n3)n2)nc1CF experimental_endpoint=pIC50 observed_result=9.89
compound=Cc1cccc(CNc2cc(N3CCOCC3)cc(CSc3nc(CF)c(C4CC4)s3)n2)n1 experimental_endpoint=pIC50 observed_result=9.72
compound=Cc1cccc(CNc2cc(N3CCSCC3)cc(CSc3nc(C)c(C)s3)n2)n1 experimental_endpoint=pIC50 observed_result=9.77
compound=CCCCNc1cc(N2CCC(F)(F)CC2)cc(CSc2nn(C)c(CC)c2C)n1 experimental_endpoint=pIC50 observed_result=9.57
compound=C=CCNc1cc(N2[C@@H]3CC[C@H]2C[C@H](F)C3)cc(CSc2nc(C)c(CC)s2)n1 experimental_endpoint=pIC50 observed_result=9.57
compound=CCc1c(C)c(SCc2cc(N3CCC(F)(F)CC3)cc(NCCOC)n2)nn1C experimental_endpoint=pIC50 observed_result=9.57

---

test system: human P-glycoprotein (Homo sapiens, UniProt P08183)
Construct: host or cells: porcine kidney-derived LLC-PK1 cells
Sequence (P08183 whole entry): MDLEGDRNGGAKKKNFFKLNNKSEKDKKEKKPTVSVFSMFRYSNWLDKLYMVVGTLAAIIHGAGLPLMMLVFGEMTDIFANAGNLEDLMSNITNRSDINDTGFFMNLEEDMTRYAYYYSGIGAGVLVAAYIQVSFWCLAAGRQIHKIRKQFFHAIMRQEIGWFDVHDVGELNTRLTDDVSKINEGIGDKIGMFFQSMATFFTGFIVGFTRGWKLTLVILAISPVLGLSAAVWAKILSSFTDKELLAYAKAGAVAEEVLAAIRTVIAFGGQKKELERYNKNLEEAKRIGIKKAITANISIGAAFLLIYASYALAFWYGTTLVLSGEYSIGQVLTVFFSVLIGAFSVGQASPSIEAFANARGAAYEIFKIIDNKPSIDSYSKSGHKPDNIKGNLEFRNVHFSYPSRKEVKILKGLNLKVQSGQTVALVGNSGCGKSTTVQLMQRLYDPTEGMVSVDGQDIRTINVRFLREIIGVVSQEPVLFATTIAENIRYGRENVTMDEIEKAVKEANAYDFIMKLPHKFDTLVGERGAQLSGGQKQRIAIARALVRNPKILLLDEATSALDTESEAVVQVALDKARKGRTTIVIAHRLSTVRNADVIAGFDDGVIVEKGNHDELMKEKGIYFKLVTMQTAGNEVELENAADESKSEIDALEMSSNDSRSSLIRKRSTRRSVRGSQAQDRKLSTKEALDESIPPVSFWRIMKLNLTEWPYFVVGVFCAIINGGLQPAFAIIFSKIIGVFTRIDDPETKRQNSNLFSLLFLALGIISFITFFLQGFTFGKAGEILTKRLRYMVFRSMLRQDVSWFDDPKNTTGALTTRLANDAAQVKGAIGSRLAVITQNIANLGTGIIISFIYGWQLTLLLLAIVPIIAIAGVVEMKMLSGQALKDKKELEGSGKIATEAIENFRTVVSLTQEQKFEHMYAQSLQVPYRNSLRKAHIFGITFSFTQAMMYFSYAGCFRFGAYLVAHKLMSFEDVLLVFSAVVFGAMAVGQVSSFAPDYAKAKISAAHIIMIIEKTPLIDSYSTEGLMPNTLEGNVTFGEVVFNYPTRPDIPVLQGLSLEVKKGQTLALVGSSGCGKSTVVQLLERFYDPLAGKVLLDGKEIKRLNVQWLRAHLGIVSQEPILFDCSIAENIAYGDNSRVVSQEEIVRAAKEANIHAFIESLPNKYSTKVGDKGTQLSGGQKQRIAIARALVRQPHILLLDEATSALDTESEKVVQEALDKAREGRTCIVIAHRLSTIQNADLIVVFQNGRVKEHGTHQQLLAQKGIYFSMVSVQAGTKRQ
experiment notes: Assay on P-glycoprotein substrate specificity (transcellular transport, LLC-PK1 cells expressing human P-glycoprotein)
Assay type: in vitro ADME
run parameters: pH 7.4; 1 μM test compound, 3 hours, human P-gp expressing LLC-PK1 cells; read-out: BA/AB (ratio of permeability coefficients Papp B to A / A to B)
experimental endpoint: efflux ratio at 3 h, 1 μM

compound="C=CCOC(=O)Nc1cccc(CNc2cc(C3CCOCC3)cc(CSc3nnc(CC)s3)n2)c1 [Compound (A), reference compound]" experimental_endpoint="efflux ratio at 3 h, 1 μM" observed_result=5
compound=Cc1nc(SCc2cc(N3CCSCC3)cc(NCc3cccc(F)n3)n2)oc1C experimental_endpoint="efflux ratio at 3 h, 1 μM" observed_result=1.9
compound=Cc1cccc(CNc2cc(N3CCOCC3)cc(CSc3nc(CF)c(C)s3)n2)n1 experimental_endpoint="efflux ratio at 3 h, 1 μM" observed_result=1.8

Data origin: patent US20120028970A1
